molecular target: AxCT mask27 EGFR EH104 L065 version 1
recordedEndpoint: Percent cleavage (%)

protein: MMP-12 (protein) GPVWRKHYITYRINNYTPDMNREDVDYAIRKAFQVWSNVTPLKFSKINTGMADILVVFARGAHGDFHAFDGKGGILAHAFGPGSGIGGDAHFDEDEFWTTHSGGTNLFLTAVHEIGHSLGLGHSSDPKAVMFPTYKYVDINTFRLSADDIRGIQSLYGDPKENQRLPNPDNSEPALCDPNLSFDAVTTVGNKIFFFKDRFFWLKVSERPKTSVNLISSLWPTLPSGIEAAYEIEARNQVFLFKDDKYWLISNLRPEPNYPKSIHSFGFPNFVKKIDAAVFNPRFYRTYFFVDNQYWRYDERRQMMDPGYPKLITKNFQGIGPKIDAVFYSKNKYYYFFQGSNQFEYDFLLQRITKTLKSNSWFGC
unitSymbol: %
observed: 68
//
protein: MMP-7 (protein) YSLFPNSPKWTSKVVTYRIVSYTRDLPHITVDRLVSKALNMWGKEIPLHFRKVVWGTADIMIGFARGAHGDSYPFDGPGNTLAHAFAPGTGLGGDAHFDEDERWTDGSSLGINFLYAATHELGHSLGMGHSSDPNAVMYPTYGNGDPQNFKLSQDDIKGIQKLYGKRSNSRKK
unitSymbol: %
observed: 60
//
protein: Cathepsin G (protein) IIGGRESRPHSRPYMAYLQIQSPAGQSRCGGFLVREDFVLTAAHCWGSNINVTLGAHNIQRRENTQQHITARRAIRHPQYNQRTIQNDIMLLQLSRRVRRNRNVNPVALPRAQEGLRPGTLCTVAGWGRVSMRRGTDTLREVQLRVQRDRQCLRIFGSYDPRRQICVGDRRERKAAFKGDSGGPLLCNNVAHGIVSYGKSSGVPPEVFTRVSSFLPWIRTTMRS
unitSymbol: %
observed: 0
//
protein: Matriptase (protein) VVGGTDADEGEWPWQVSLHALGQGHICGASLISPNWLVSAAHCYIDDRGFRYSDPTQWTAFLGLHDQSQRSAPGVQERRLKRIISHPFFNDFTFDYDIALLELEKPAEYSSMVRPICLPDASHVFPAGKAIWVTGWGHTQYGGTGALILQKGEIRVINQTTCENLLPQQITPRMMCVGFLSGGVDSCQGDSGGPLSSVEADGRIFQAGVVSWGDGCAQRNKPGVYTRLPLFRDWIKENTGV
unitSymbol: %
observed: 0
//
protein: Neutrophil Elastase (protein) IVGGRRARPHAWPFMVSLQLRGGHFCGATLIAPNFVMSAAHCVANVNVRAVRVVLGAHNLSRREPTRQVFAVQRIFENGYDPVNLLNDIVILQLNGSATINANVQVAQLPAQGRRLGNGVQCLAMGWGLLGRNRGIASVLQELNVTVVTSLCRRSNVCTLVRGRQAGVCFGDSGSPLVCNGLIHGIASFVRGGCASGLYPDAFAPVAQFVNWIDSIIQ
unitSymbol: %
observed: 10
//
protein: MMP-1 (protein) FVLTEGNPRWEQTHLTYRIENYTPDLPRADVDHAIEKAFQLWSNVTPLTFTKVSEGQADIMISFVRGDHRDNSPFDGPGGNLAHAFQPGPGIGGDAHFDEDERWTNNFREYNLHRVAAHELGHSLGLSHSTDIGALMYPSYTFSGDVQLAQDDIDGIQAIYGRSQNPVQPIGPQTPKACDSKLTFDAITTIRGEVMFFKDRFYMRTNPFYPEVELNFISVFWPQLPNGLEAAYEFADRDEVRFFKGNKYWAVQGQNVLHGYPKDIYSSFGFPRTVKHIDAALSEENTGKTYFFVANKYWRYDEYKRSMDPGYPKMIAHDFPGIGHKVDAVFMKDGFFYFFHGTRQYKFDPKTKRILTLQKANSWFNCRKN
unitSymbol: %
observed: 10
